So I've got a bunch of binders here, and I need their Response values.
testedSystem: T1, monkey Trop2 protein (Sino Biological, #90893-C08H) (monkey, UniProt A0A2K5UE71 27-274)
T1 construct: bought protein; also called monkey Trop2 protein antigen (His tag)
T1 sequence: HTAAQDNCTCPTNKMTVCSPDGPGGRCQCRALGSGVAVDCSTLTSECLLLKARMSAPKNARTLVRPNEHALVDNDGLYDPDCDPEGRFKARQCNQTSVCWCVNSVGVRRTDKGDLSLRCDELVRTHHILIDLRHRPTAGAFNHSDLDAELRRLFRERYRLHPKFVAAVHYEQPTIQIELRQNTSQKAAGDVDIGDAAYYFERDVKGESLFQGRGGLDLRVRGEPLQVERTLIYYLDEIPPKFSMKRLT
assayInfo: BLI, Octet RED96, AHC sensor

Response recorded for this binder, PR001138 (antibody, human IgG1, kappa, V domains shown, fully human IgG1/kappa; also called antibody No. (7)) VH: QVQLQESGPRLVKPSETLSLTCAVSGYSISSGYYWGWIRQSPGMGLEWIAYIYHDGSTYCNPSLKSRVTMSVDTSKNQFSLKLRSVTAADTAVYYCARDGAAAPFDYWGQGTLVTVSS VL: DIQMTQSPSTLSASVGDRVTITCRASQSISNWLAWYQQKPGKAPKVLIYKASSLESGVPSRFSGSGSGTEFTLTINSLQPDDFATYYCQQYDSYSITFGQGTRLEIKR , is 0.329

Response recorded for this binder, comparative example 2 antibody Tab (hRS7) (antibody, human IgG1, kappa, V domains shown, prepared on the basis of sacituzumab govitecan (ChemPartner, #T07-001); naked antibody) VH: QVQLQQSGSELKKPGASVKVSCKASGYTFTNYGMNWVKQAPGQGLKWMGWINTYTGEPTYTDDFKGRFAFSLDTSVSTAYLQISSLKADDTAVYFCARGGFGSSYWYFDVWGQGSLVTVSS VL: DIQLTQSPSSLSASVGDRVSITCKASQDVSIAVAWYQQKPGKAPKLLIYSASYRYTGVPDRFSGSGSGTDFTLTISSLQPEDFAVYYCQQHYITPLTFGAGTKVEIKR , is 0.322
